Where do these numbers come from? They come from paper PMC5540273.

Measured %Inh, listed per entry for reference.
system: CDK4; conditions: concentration: 1 μM, replicates: in singlicate; n = 1;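 note: KINOMEscan kinase panel screen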
measurement kind: %Inh (%)

> print(dat)
                                   molecule  obs.value
1  COc1cc2ncn(-c3cc(OCc4ccc(S(C)(=O)=O)cc4)c(C(N)=O)s3)c2cc1OC          9
2  COc1ccc(Nc2nccc(N3CCC(NS(=O)(=O)c4ccc(NC(C)=O)cc4)C3)n2)cc1 (stereo not drawn)         13
3               Nc1ncnc2c1ncn2-c1ccc(Cl)cc1         42
4  Cc1ccc(-c2ccc3c(ccc4sc5c(c43)NC[C@@H](C)N=C5N(C)C)n2)cn1          0
5      O=C1NC(=O)C(c2ccccc2)=C1Nc1cccc(O)c1          0
6  Cc1nnc(-c2ccc(C)c(-c3ccc(C(=O)O)cc3)c2)o1         29
7  O=C(NCc1cccs1)c1cc(C(=O)c2c(Cl)cccc2Cl)c[nH]1          0
8  COc1cc(Nc2nccc(N3CCC(NC(=O)C4COc5ccccc5O4)C3)n2)cc(OC)c1OC (stereo not drawn)         70
9  COc1cc(Nc2ccnc3ccc(C(F)(F)F)cc23)cc(OC)c1OC         10

---

Listed below: %Inh values for each entry.
test system: PIP5K1A; conditions: concentration: 1 μM, replicates: in singlicate; n = 1
measurement kind: %Inh

> print(dat)
                                   compound  study.target  obs.value
1  COc1ccc(CNC(=O)NC2CCN(c3ccnc(Nc4ccc(F)cc4)n3)C2)cc1 (centres unmarked)       PIP5K1A        44%
2  Cc1ccccc1COc1cc(-n2cnc3cc(Cl)ccc32)sc1C(N)=O       PIP5K1A        24%
3                 CCn1c(-c2ccoc2)nc2cnccc21       PIP5K1A        11%
4  COc1cc(OC)cc(-c2cc3cnc(N)nc3nc2NC(=O)NC(C)(C)C)c1       PIP5K1A        37%
5  Cc1cc(Nc2nc(-c3cccc(C)n3)nc3ccccc23)ccn1       PIP5K1A         2%

---

test system: PIM1; conditions: concentration: 1 μM, replicates: in singlicate; n = 1
Field: label. Allowed values: yes (1) (%Inh < 4%) or no (0) (%Inh >= 4%).

> print(dat)
                         compound.structure  category
1  COc1cc2ncn(-c3cc(OCc4ccncc4)c(C(N)=O)s3)c2cc1OC   yes (1)
2     Nc1nc(-c2ccccc2F)c(-c2ccnc3ccccc23)s1   yes (1)
3  COc1ccc(-c2cc3c(C)nc(N)nc3n([C@H]3CC[C@H](OCCO)CC3)c2=O)cn1   yes (1)
4  C[C@@H]1CC[C@H](C(=O)NC2CCCCC2)CN1c1cc(-c2ccc3c(N)n[nH]c3c2)nc(N)n1    no (0)
5  O=C(NCc1cccs1)c1cc(C(=O)c2c(Cl)cccc2Cl)c[nH]1    no (0)
6             COc1ccc(-n2cnc3c(N)ncnc32)cc1    no (0)
7  Cc1c(Cn2c(C)nn3c(=O)cc(N4CCO[C@H](C)C4)nc23)cccc1C(F)(F)F   yes (1)
8  CCc1ccc(-c2ccc3c(c2)-c2nn(C)cc2S(=O)(=O)N3C)cc1   yes (1)

---

The reader will find reported %Inh values listed item by item below.
system: SNRK; details: concentration: 1 μM, replicates: in singlicate; n = 1
measurement kind: %Inh

> print(dat)
                         compound.structure  measurement.kind  obs.value
1             Nc1ncnc2c1ncn2-c1cccc2ccccc12              %Inh         2%
2  CCCC(=O)Nc1n[nH]c2ncc(-c3cccc4ccccc34)cc12              %Inh         0%
3  COc1ccc(-c2cc3c(C)nc(N)nc3n([C@H]3CC[C@H](O)CC3)c2=O)cn1              %Inh         0%
4    Fc1cccc(CSc2nnc(-c3ccc4c(c3)CCO4)o2)c1              %Inh        10%
5  COc1cc2nccc(Nc3cccc(Oc4ccccc4)c3)c2cc1OC.Cl              %Inh         0%

---

tested on: RSK1(Kin.Dom.1-N-terminal); construct: gene RPS6KA1; details: concentration: 1 μM, replicates: in singlicate; n = 1
measurement kind: %Inh (%)

> print(dat)
                                   molecule  measurement.kind  obs.value
1  O=C(NCc1cccs1)c1cc(C(=O)c2c(Cl)cccc2Cl)c[nH]1 [GW823670]              %Inh         16
2  CCC(=O)c1c(-c2ccccc2)c2cc(Cl)ccc2c(=O)n1Cc1ccc(C(=O)O)cc1              %Inh          0
3  Nc1n[nH]c2ncc(-c3ccccc3)cc12 [SB-517081]              %Inh         25
4  COc1cc2nccc(Nc3ccc(OCc4ccc(NC(C)=O)cc4)cc3)c2cc1OC.Cl [GW440135]              %Inh          0
5  O=C(Nc1n[nH]c2nc(-c3ccccc3)c(Cl)cc12)C1CC1 [SB-734909]              %Inh         26
6    Fc1cccc(CSc2nnc(-c3ccc4c(c3)CCO4)o2)c1              %Inh          0
7  CCc1ccc(-c2ccc3c(c2)-c2nn(C)cc2S(=O)(=O)N3C)cc1              %Inh          2
8  COc1cccc(C2=C(Nc3cccc(C(=O)O)c3)C(=O)NC2=O)c1 [SB-390770]              %Inh          0

---

test system: NEK11; conditions: concentration: 1 μM, replicates: in singlicate; n = 1
measurement kind: %Inh (%)

> print(dat)
                                   compound  measurement.kind  obs.value
1  COC(=O)c1c(-c2ccccc2)c2cc(Br)ccc2c(=O)n1Cc1ccc(NC(=O)CCC(=O)O)cc1              %Inh          0
2  COc1ccc(-c2coc3ccc(-c4nnc(SCc5cccc(C#N)c5)o4)cc23)cc1              %Inh          0
3  COc1ccc(-c2cc3c(C)nc(N)nc3n([C@H]3CC[C@H](O)CC3)c2=O)cn1              %Inh          0
4             COc1ccc(-n2cnc3c(N)ncnc32)cc1              %Inh          3
5     Nc1nc(-c2ccccc2F)c(-c2ccnc3ccccc23)s1              %Inh          0
6           Nc1nc(N)c2nc(-c3ccccc3)[nH]c2n1              %Inh         13
7  Cc1nc(N(C)[C@H]2CN(C(=O)CC#N)CC[C@H]2C)c2cc[nH]c2n1              %Inh          0
8  COc1ccc(Nc2nccc(N3CCC(NS(=O)(=O)c4ccc(NC(C)=O)cc4)C3)n2)cc1 (stereo not drawn)              %Inh          1
9  OCCCNc1nccc(-c2c(-c3cccc(C(F)(F)F)c3)nn3cc(C(F)(F)F)ccc23)n1              %Inh          5

---

test system: CDK4; settings: concentration: 1 μM, replicates: in singlicate; n = 1
Listed below: %Inh values for each entry.
measurement kind: %Inh

> print(dat)
                                   compound  study.target  measurement.kind  obs.value
1  COc1cc2ncn(-c3cc(OCc4ccncc4Br)c(C(N)=O)s3)c2cc1OC          CDK4              %Inh         0%
2  Cc1nn2c(=O)cc(N3CCOCC3)nc2n1Cc1cccc(Cl)c1Cl          CDK4              %Inh         0%
3    Fc1cccc(CSc2nnc(-c3ccc4c(c3)CCO4)o2)c1          CDK4              %Inh         0%
4  COc1ccc(-c2cc3c(C)nc(N)nc3n([C@H]3CC[C@H](O)CC3)c2=O)cn1          CDK4              %Inh         0%
5  COC(=O)c1c(-c2ccccc2)c2cc(Br)ccc2c(=O)n1Cc1ccc(S(C)(=O)=O)cc1          CDK4              %Inh         0%
6                Nc1ncnc2c1ncn2-c1cccc(F)c1          CDK4              %Inh        30%
7  Cl.NS(=O)(=O)c1cccc(Nc2cc(-c3ccc(F)cc3)n[nH]2)c1          CDK4              %Inh         0%
8  CCC(=O)c1c(-c2ccccc2)c2cc(Cl)ccc2c(=O)n1Cc1cc(S(C)(=O)=O)n(CC(N)=O)n1          CDK4              %Inh         0%
9  COc1ccc(CNC(=O)NC2CCN(c3ccnc(Nc4ccc(F)cc4)n3)C2)cc1 (stereo not drawn)          CDK4              %Inh        49%
